Values were extracted from paper PMC9878617.

study_target: rh-proNGF (Homo sapiens, UniProt P01138)
Construct: gene NGF; proNGF without signal peptide; homodimer
Sequence (P01138 19-241): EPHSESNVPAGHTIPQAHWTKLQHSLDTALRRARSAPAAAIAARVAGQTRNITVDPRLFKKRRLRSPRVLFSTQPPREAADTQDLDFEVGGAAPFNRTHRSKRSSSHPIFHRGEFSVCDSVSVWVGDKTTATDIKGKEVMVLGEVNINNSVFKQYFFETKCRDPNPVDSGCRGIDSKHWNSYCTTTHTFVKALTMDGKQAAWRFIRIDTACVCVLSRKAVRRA
protocol_summary: ITC, global fit of two titrations (SEDPHAT)
Assay type: binding
measurement_setup: read-out: Best-fit value
Text: ITC, global fit of two titrations (SEDPHAT) on rh-proNGF
assay_metric: Kd (µM)
Hi! Could you send only the number? It should be in µM, unit omitted.

Q: For `Nc1ncnc2c1ncn2[C@@H]1O[C@H](COP(=O)(O)OP(=O)(O)OP(=O)(O)O)[C@@H](O)[C@H]1O` , what is its reported Kd?
Result: 39.7
